Items are presented alongside their recorded z-score.
PROTOCOL_TEXT: basal S. cerevisiae growth modulation, no modifier, primary screen, OD600, strain BY4716, 24 h, basal condition (AID 1173)
TEST_CONDITIONS: OD600, 24 h, higher = more signal, called active from +8 up or from −8 down
Answer with a bare number; do not write a unit.

Here is how some compounds turned out for z-score.
[
  {
    "ITEM_SMILES": "C=C(CCCC)/C(=C/C[C@@H](OC(=O)c1ccncc1)c1cccc(OCCO)c1)c1cnc2ccccc2c1",
    "z-score": -1.17
  },
  {
    "ITEM_SMILES": "O=C1O[C@@H](c2ccccc2)[C@@H](c2ccccc2)N2[C@@H](c3ccc(O)cc3)[C@]3(C(=O)Nc4ccc(C#CC5=CCCCC5)cc43)[C@@H](C(=O)N3CCN(c4ncccn4)CC3)[C@H]12",
    "z-score": -0.066
  },
  {
    "ITEM_SMILES": "O=C(N1CCCCC1)[C@@]1(Cc2ccccc2)COC(c2ccc(OCCCO)cc2)=N1",
    "z-score": -5.06
  }
]

Return reported z-score; argument: CN(C)CCCCNC(=O)[C@H]1C[C@H]2C(=O)N3CCC[C@H]3C(=O)N2[C@H]1c1ccc(O)cc1
-0.659
